Test: qHTS assay to identify small molecule antagonists of the peroxisome proliferator-activated receptor gamma (PPARg) signaling pathway - cell viability counter screen (AID 743194); further: nearly all actives have a fitted effect of over 55% in size
Conditions: PPARg-bla HEK293H viability, CellTiter-Glo luminescence, 17 h, co-treated with 50 nM rosiglitazone; series mostly up to 62.6 µM
Records with an inconclusive call do not appear. Active and inactive are the calls of the source. The call rests on the fitted dose curve; in most records, active means well fitted cell-killing curve with a large enough effect in the repeat runs; inconclusive means weak or mixed curves, or effect the other way; inactive means no such curve, though single readings can be large or run the other way.
Return exactly one item of t = active, f = inactive

Ask | Identify the outcome logged in this assay for the compound shown: `Oc1cccc2cc3cccc(O)c3c(O)c12`
Reply | f

Ask | // outcome(item) with item = `C=CC(=O)OCC(CO)(COCC(COC(=O)C=C)(COC(=O)C=C)COC(=O)C=C)COC(=O)C=C`
Reply | t

Ask | # fetch the recorded call for `C1CCCC1` here
Reply | f

Ask | Test call, this compound: `NC(=O)NS(=O)(=O)c1ccc(N)cc1`
Reply | f

Ask | For `CCCCCCCC[P+](CCCCCCCC)(CCCCCCCC)CCCCCCCC` , what call appears in the results of this test?
Reply | t

Ask | Please indicate how the test categorized `CN(C)[C@@H]1C(=O)C(C(N)=O)=C(O)[C@@]2(O)C(=O)C3=C(O)c4c(O)cccc4C[C@H]3C[C@@H]12` .
Reply | f

* * *

Assay: Caspase-3/7 induction in HepG2 cells by small molecules, qHTS cell viability counter screen (AID 1346981); further: nearly all actives have a fitted effect of over 30% in size
Conditions: CellTiter-Fluor fluorescence, 17 h; series mostly up to 92.4 µM
Results filed as inconclusive are left out. Activity calls are given as the source filed them. The call rests on the fitted dose curve; in most records, active means well fitted cell-killing curve with a large enough effect in the repeat runs; inconclusive means weak or mixed curves, or effect the other way; inactive means flat fitted curve, though single readings scatter.
Select the correct class. Options are active, inactive and nothing else.

CCCCCCCCNC(C)C(O)c1ccc(SC(C)C)cc1 (stereo not given) : active

Ask | Entry `Cc1cc(O)c(C(C)(C)C)cc1Sc1cc(C(C)(C)C)c(O)cc1C` : call = ?
Reply | active

Ask | So what was the verdict on `O=C(OCC(COC(=O)c1ccccc1)(COC(=O)c1ccccc1)COC(=O)c1ccccc1)c1ccccc1` in this test?
Reply | inactive

Ask | Called result for CCCN(CCC)C(=O)C(CCC(=O)OCCCN1CCN(CCOC(=O)Cc2c(C)n(C(=O)c3ccc(Cl)cc3)c3ccc(OC)cc23)CC1)NC(=O)c1ccccc1 (stereo not given)
Reply | active

Ask | Write down the call the test reported for this compound. Item: `Oc1cc2ccccc2c2ccccc12`
Reply | active

* * *

Experiment: qHTS assay to identify small molecule agonists of the androgen receptor (AR) signaling pathway in the presence of an antagonist - cell viability counter screen (AID 1259379); further: nearly all actives have a fitted effect of over 25% in size
Conditions: MDA-kb2 viability, CellTiter-Fluor, 16 h; series mostly up to 92.4 µM
Inconclusive results are not listed. Calls of active or inactive are those of the source. Calls come from the whole dose curve; as a rule, active = well fitted cell-killing curve with a large enough effect in the repeat runs; inconclusive = weak or mixed curves, or effect the other way; inactive = flat fitted curve, though single readings scatter.
Your answer must be one of the following: active, inactive

NC(=O)C1(N2CCCCC2)CCN(CCCN2c3ccccc3CCc3ccc(Cl)cc32)CC1 : active

Ask | Tell me the assay call for `O=C1C=CC(=O)N1c1ccc(Cc2ccc(N3C(=O)C=CC3=O)cc2)cc1` please.
Reply | active

Ask | Which result was noted for this compound in the test: `O=[N+]([O-])c1cc(Cl)c(Cl)c(Cl)c1Cl`
Reply | active

Ask | Record lookup: outcome of this test for `O=C(c1ccc(F)cc1)C1CCN(CCn2c(=O)[nH]c3ccccc3c2=O)CC1` ?
Reply | inactive

Ask | Lab log entry: `CC(=O)SC[C@@H](Cc1ccccc1)C(=O)NCC(=O)OCc1ccccc1` — outcome as called in the assay?
Reply | inactive

Ask | Which result was noted for this compound in the test: `ON=C1CCCC1`
Reply | inactive

* * *

Molecular target: Androgen receptor (Homo sapiens)
Assay: qHTS assay to identify small molecule antagonists of the androgen receptor (AR) signaling pathway using the MDA cell line (AID 743042; further: nearly all actives have a fitted effect of over 55% in size)
Conditions: MDA-kb2 AR-luc, MMTV luciferase, R1881 antagonist, 16 h; series mostly up to 70.3 µM
Source text: U.S. Tox21 Program National Center for Advancing Translational Sciences [NCATS] NIH Chemical Genomics Center [NCGC] U.S. Environmental Protection Agency [EPA] National Institutes of Environmental Health Sciences [NIEHS] National Toxicology Program [NTP] U.S. Food and Drug Administration [FDA] Tox21 Assay Overview: Androgen receptor (AR), a nuclear hormone receptor, plays a critical role in AR-dependent prostate cancer and other androgen related diseases. […]
Records with an inconclusive call do not appear. Active and inactive are the calls of the source. Calls come from the whole dose curve; as a rule, active = well fitted inhibition curve with a large enough effect in the repeat runs; inconclusive = weak or mixed curves, or effect the other way; inactive = no such curve, though single readings can be large or run the other way.
Select the matching outcome among active, inactive

Take a look at these entries with their results.
O=C1C=CC(=O)N1 : active
O=C(c1ccc(F)cc1)C1CCN(CCn2c(=O)[nH]c3ccccc3c2=O)CC1 : inactive
ON=C1CCCC1 : inactive

Ask | Tell me the assay call for `[Cl][Bi]([Cl])([c]1ccccc1)([c]1ccccc1)[c]1ccccc1` please.
Reply | active

* * *

Assay: Caspase-3/7 induction in HepG2 cells by small molecules, qHTS cell viability counter screen (AID 1346981); further: nearly all actives have a fitted effect of over 30% in size
Conditions: CellTiter-Fluor fluorescence, 17 h; series mostly up to 92.4 µM
Inconclusive results are not listed. Active and inactive are the calls of the source. The call rests on the fitted dose curve; in most records, active means well fitted cell-killing curve with a large enough effect in the repeat runs; inconclusive means weak or mixed curves, or effect the other way; inactive means flat fitted curve, though single readings scatter.
// classify into yes (1) = active, no (0) = inactive

A selection of reference data follows.
NC(=O)NS(=O)(=O)c1ccc(N)cc1 : no (0)
CCCCCCCCOC(=O)c1ccc(O)cc1 : no (0)
COC(=O)C1=C(C)NC(C)=C(C(=O)OCC(C)C)C1c1ccccc1[N+](=O)[O-] (stereo not drawn) : yes (1)
CCCCCOC(=O)CCCC : no (0)

Ask | Dear all, I need the recorded test outcome for `c1ccc(CSCc2ccccc2)cc1` , thank you.
Reply | no (0)

Ask | I would be grateful if you could indicate the recorded call for `CN(C)c1ccc(SC#N)cc1` .
Reply | no (0)

Ask | What is the recorded call for this compound in the test? `CCCCN1C(=O)[C@@H]([C@H](O)C2CCCCC2)NC(=O)C12CCN(Cc1ccc(Oc3ccc(C(=O)O)cc3)cc1)CC2`
Reply | yes (1)

Ask | Which outcome did this test record for the compound `CCCCCCCCCCCCc1ccc(O)cc1` ?
Reply | yes (1)

Ask | What call does the record list for `CO[Si](CCCNc1ccccc1)(OC)OC` ?
Reply | no (0)

Ask | Identify the outcome logged in this assay for the compound shown: `Nc1ccc2cc(S(=O)(=O)O)cc(O)c2c1N=Nc1ccccc1C(F)(F)F`
Reply | yes (1)

Ask | What outcome does the record of this test show for `O=C(Nc1cccc(Cl)c1)OCC#CCCl` ?
Reply | yes (1)

Ask | Which outcome was entered for the compound `N=C1N=C(N)c2cc3ccccc3cc21` in this test?
Reply | yes (1)

Ask | Hi, do you know how `CCN(C(=O)N(CC)c1ccccc1)c1ccccc1` came out in this test?
Reply | no (0)

* * *

Test: qHTS assay to identify small molecule agonists of the TGF-beta/Smad signaling pathway - cell viability counter screen (AID 1346829); further: nearly all actives have a fitted effect of over 45% in size; further: potency means the concentration at half of the fitted maximal effect
Conditions: SBE-bla HEK293T viability, CellTiter-Glo luminescence, 5 h; series mostly up to 76.8 µM
Inconclusive results are not listed. Activity calls are given as the source filed them. Calls follow the shape of the dose curve; as a rule, active = well fitted cell-killing curve with a large enough effect in the repeat runs; inconclusive = weak or mixed curves, or effect the other way; inactive = flat fitted curve, though single readings scatter.
parameter: Potency

COc1cc(/C=C/C(=O)O[C@H]2CC[C@]34C[C@]35CC[C@]3(C)[C@@H]([C@H](C)CCC=C(C)C)CC[C@@]3(C)[C@@H]5CC[C@H]4C2(C)C)ccc1O : inactive
N=C1C=CC(=C(c2ccc(N)cc2)c2ccc(N)cc2)C=C1 : inactive
CCOC(=O)O[C@H](C)OC(=O)c1ccc2c(c1)cc(C(=O)NC1CCN(C(C)C)CC1)n2Cc1cc(-c2ccc(Cl)s2)on1 : 45.8 µM (active)
CCCCCCCCCCCC(=O)NCCCN(C)C : 54.9 µM (active)
Nc1cc(C(F)(F)F)ccc1S : inactive

Ask | Please supply the value of reported Potency for the item `O=c1c(-c2ccccc2)c1-c1ccccc1`
Reply | inactive

Ask | Please look at this compound and report its Potency: `O=C(Oc1cccc2cccnc12)c1ccccc1`
Reply | inactive

Ask | Could you please provide reported Potency for COC(=O)C1=C(C)NC(C)=C(C(=O)OCCc2ccc(N3CCN(C(c4ccccc4)c4ccccc4)CC3)cc2)C1c1cccc([N+](=O)[O-])c1 (centres undefined) ? Thanks!
Reply | inactive

Ask | Provide measured Potency value, entry: `CO[Si](CCCNc1ccccc1)(OC)OC`
Reply | inactive

Ask | Provide only the value of recorded Potency for `[Cl][Au]([Cl])[Cl]`
Reply | 54.9 µM (active)

Ask | Identify Potency associated with the compound `CCCCCCCCCCCC[N+](C)(C)CCCCCCCCCCCC`
Reply | 34.7 µM (active)

Ask | Return reported Potency. Input compound: `CCN(Cc1cccnc1)C(=O)c1cccc(Cl)c1[C@]1(C)C(=O)N(Cc2ccc(OC)cc2OC)c2ccc(Cl)cc21`
Reply | inactive

Ask | Provide Potency value for the following compound: `CCCCCCCCCCCCCCCC(=O)OC[C@H](O)[C@H]1OC(=O)C(O)=C1O`
Reply | inactive

Ask | Fill in reported Potency for this entry: `CC1(C)CCC(C)(C)c2cc(C(=O)Nc3ccc(C(=O)O)cc3)ccc21`
Reply | inactive

Ask | Determine from records and report Potency for `CCc1oc2ccccc2c1C(=O)c1cc(Br)c(O)c(Br)c1`
Reply | inactive

Ask | For the compound `CC(C)(C)c1ccc(C(=O)O)cc1` , give its reported Potency.
Reply | inactive

Ask | Determine from records and report Potency for CC1=NC(C)OC1C (centres undefined)
Reply | inactive

Ask | Return reported Potency. Input compound: `CCC(N)(CO)CO`
Reply | inactive

Ask | Return Potency for the following compound: `CN1CCC(Nc2ncc3ncnc(Nc4ccc(F)c(Cl)c4)c3n2)CC1`
Reply | inactive

FYI, the data here is from PubChem BioAssay (Tox21).
